System: Escherichia coli TOP10;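 further: peptides expressed intracellularly from a pBAD plasmid library in pooled LB shake-flask culture, induced with 0.3% L-arabinose, DNA abundance read by NGS, three biological replicates, DESeq2 with apeglm shrinkage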
Procedure Summary: shrunken log2 fold change of peptide-encoding DNA abundance (4.5 h post-induction vs induction); higher = less antimicrobial activity (less host growth inhibition)
Test Settings: time post-induction: 4.5 h; library: site-saturation at positions 5, 18, 19, 20
Attribute Measured: shrunken log2 fold change
Give bare numbers.

Short answer for RRIRNRPPRLPRPRPRPVHYPRP : shrunken log2 fold change was -0.124

Short answer for RRIRERPPRLPRPRPRPFVRPRP : shrunken log2 fold change was -0.146

Short answer for RRIRGRPPRLPRPRPRPGNSPRP : shrunken log2 fold change was 0.131

Short answer for RRIRMRPPRLPRPRPRPYIKPRP : shrunken log2 fold change was -0.86

Hey, quick one: what's shrunken log2 fold change for each of these?
1. RRIRARPPRLPRPRPRPGFGPRP
2. RRIRRRPPRLPRPRPRPISSPRP
3. RRIRGRPPRLPRPRPRPCVCPRP
4. RRIRFRPPRLPRPRPRPDIMPRP

Given back:
0.667
0.0497
0.617
-0.06
